System: R. palustris LCC (RpLCC)
experiment summary: coupled ATPase assay
Assay type: biochemical, Rhodopseudomonas palustris
condition context: 1.5 mM ATP, 40 mM KHCO3, 10 mM MgCl2, 200 mM KCl, 100 mM Hepes pH 7.5; 0.25 uM enzyme
Label Y when Km is at or above 400 µM; otherwise label N.

CCCCCCCCCCCC(=O)SCCNC(=O)CCNC(=O)[C@H](O)C(C)(C)COP(=O)(O)OP(=O)(O)OC[C@H]1O[C@@H](n2cnc3c(N)ncnc32)[C@H](O)[C@@H]1OP(=O)(O)O :: N

Hi team, for CC(=O)SCCNC(=O)CCNC(=O)[C@H](O)C(C)(C)COP(=O)(O)OP(=O)(O)OC[C@H]1O[C@@H](n2cnc3c(N)ncnc32)[C@H](O)[C@@H]1OP(=O)(O)O , is the recorded Km at or above 400 µM?
Y

Test whether the molecule CCCCCC(=O)SCCNC(=O)CCNC(=O)[C@H](O)C(C)(C)COP(=O)(O)OP(=O)(O)OC[C@H]1O[C@@H](n2cnc3c(N)ncnc32)[C@H](O)[C@@H]1OP(=O)(O)O records Km of 400 µM or higher.
N

Does Km meet or surpass 400 µM for CCCCCCCC(=O)SCCNC(=O)CCNC(=O)[C@H](O)C(C)(C)COP(=O)(O)OP(=O)(O)OC[C@H]1O[C@@H](n2cnc3c(N)ncnc32)[C@H](O)[C@@H]1OP(=O)(O)O ?
N

###

System: R. palustris LCC (RpLCC)
experiment summary: coupled ATPase assay
Assay type: biochemical, Rhodopseudomonas palustris
condition context: 1.5 mM ATP, 40 mM KHCO3, 10 mM MgCl2, 200 mM KCl, 100 mM Hepes pH 7.5; 0.25 uM enzyme
Record form. Attribute: Km. Fill in for each entry.
One number for each entry, in µM.

In the examples that follow, each entry is paired with its recorded Km.
CCC(=O)SCCNC(=O)CCNC(=O)[C@H](O)C(C)(C)COP(=O)(O)OP(=O)(O)OC[C@H]1O[C@@H](n2cnc3c(N)ncnc32)[C@H](O)[C@@H]1OP(=O)(O)O :: 2200
CCCC(=O)SCCNC(=O)CCNC(=O)[C@H](O)C(C)(C)COP(=O)(O)OP(=O)(O)OC[C@H]1O[C@@H](n2cnc3c(N)ncnc32)[C@H](O)[C@@H]1OP(=O)(O)O :: 820
CCCCCCCCCCCCCCCC(=O)SCCNC(=O)CCNC(=O)[C@H](O)C(C)(C)COP(=O)(O)OP(=O)(O)OC[C@H]1O[C@@H](n2cnc3c(N)ncnc32)[C@H](O)[C@@H]1OP(=O)(O)O :: 5.8
CCCCCCCCCCCCCC(=O)SCCNC(=O)CCNC(=O)[C@H](O)C(C)(C)COP(=O)(O)OP(=O)(O)OC[C@H]1O[C@@H](n2cnc3c(N)ncnc32)[C@H](O)[C@@H]1OP(=O)(O)O :: 26

Turning now to a further record.
Give the measured Km of CCCCCCCCCC(=O)SCCNC(=O)CCNC(=O)[C@H](O)C(C)(C)COP(=O)(O)OP(=O)(O)OC[C@H]1O[C@@H](n2cnc3c(N)ncnc32)[C@H](O)[C@@H]1OP(=O)(O)O .
33
